Test system: 596521-263-R-J1-PDC complex spheroid growth;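 also: spheroids exposed to compounds for 7 days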
Assay: Anticancer human tumor 596521-263-R-J1-PDC patient-derived soft tissue sarcoma cell line growth inhibition [Asc]
Conditions: second compound 10 µM; first compound 3.16 µM; stronger effect = lower value
measure_name: viability, T/C (%)
Answers are plain numbers, in %.

compound="C=CC(=O)N1CCN(c2nc(=O)n(-c3c(C)ccnc3C(C)C)c3nc(-c4c(O)cccc4F)c(F)cc23)C(C)C1 (centres undefined) + Cc1c(S(C)(=O)=O)c(-c2cc(F)cc(N3CCN(c4ccc(NS(=O)(=O)c5ccc(NC(CCN6CCC(C(=O)OCCCP(=O)(O)O)CC6)CSc6ccccc6)c(S(=O)(=O)C(F)(F)F)c5)cc4)CC3)c2)c(-c2ccc(Cl)cc2)n1C(C)C" measure_name="viability, T/C" numeric_readout=40.8
compound="C=C(F)C(=O)N1CCN(c2nc(OCC3CCCN3C)nc3c2CCN(c2cccc4cccc(Cl)c24)C3)CC1CC#N (centres undefined) + Cc1c(S(C)(=O)=O)c(-c2cc(F)cc(N3CCN(c4ccc(NS(=O)(=O)c5ccc(NC(CCN6CCC(C(=O)OCCCP(=O)(O)O)CC6)CSc6ccccc6)c(S(=O)(=O)C(F)(F)F)c5)cc4)CC3)c2)c(-c2ccc(Cl)cc2)n1C(C)C" measure_name="viability, T/C" numeric_readout=22
compound="C#Cc1c(F)ccc2cc(O)cc(-c3ncc4c(N5CC6CCC(C5)N6)nc(OCC56CCCN5CC(F)C6)nc4c3F)c12 (centres undefined) + Cc1c(S(C)(=O)=O)c(-c2cc(F)cc(N3CCN(c4ccc(NS(=O)(=O)c5ccc(NC(CCN6CCC(C(=O)OCCCP(=O)(O)O)CC6)CSc6ccccc6)c(S(=O)(=O)C(F)(F)F)c5)cc4)CC3)c2)c(-c2ccc(Cl)cc2)n1C(C)C" measure_name="viability, T/C" numeric_readout=43.7

GET /value?item= O=C(c1cc(Cc2n[nH]c(=O)c3ccccc23)ccc1F)N1CCN(C(=O)C2CC2)CC1 + Cc1c(S(C)(=O)=O)c(-c2cc(F)cc(N3CCN(c4ccc(NS(=O)(=O)c5ccc(NC(CCN6CCC(C(=O)OCCCP(=O)(O)O)CC6)CSc6ccccc6)c(S(=O)(=O)C(F)(F)F)c5)cc4)CC3)c2)c(-c2ccc(Cl)cc2)n1C(C)C &field=viability, T/C returns 36.3
